Each record here notes measured activation.
Target: Lysosomal acid glucosylceramidase (Homo sapiens) (UniProt P04062)
Sequence (P04062 whole entry L483P): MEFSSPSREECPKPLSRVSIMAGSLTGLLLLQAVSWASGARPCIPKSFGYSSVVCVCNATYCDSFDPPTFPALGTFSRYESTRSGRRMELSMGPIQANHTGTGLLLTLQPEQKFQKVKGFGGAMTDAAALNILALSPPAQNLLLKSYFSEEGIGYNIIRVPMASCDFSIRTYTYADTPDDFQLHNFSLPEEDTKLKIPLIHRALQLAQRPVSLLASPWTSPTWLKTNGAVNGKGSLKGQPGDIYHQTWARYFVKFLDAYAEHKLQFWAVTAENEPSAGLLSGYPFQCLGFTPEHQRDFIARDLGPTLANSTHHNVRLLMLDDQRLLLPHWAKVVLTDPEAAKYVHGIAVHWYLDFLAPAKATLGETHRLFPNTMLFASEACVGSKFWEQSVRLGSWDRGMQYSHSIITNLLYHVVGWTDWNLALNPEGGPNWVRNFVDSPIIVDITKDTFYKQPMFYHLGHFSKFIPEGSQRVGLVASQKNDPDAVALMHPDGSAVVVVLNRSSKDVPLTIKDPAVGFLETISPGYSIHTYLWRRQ
Assay: raising glucocerebrosidase activity, Gaucher cells – primary screen (AID 784);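 also: 0% = vehicle wells and 100% = positive control wells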
Conditions: L444P Gaucher fibroblasts, 4-MU-glucoside fluorescence, 3 days; at 10 µM; stronger effect = higher value
The campaign covered roughly 30,000 compounds. About 130 (0.43%) were called active. Only a selection was taken, and actives are over-represented in it overall.
Give the value, in units of %, as a plain number.

Study these solved cases before continuing.
[[record]]
compound = "CCCc1nc(SCC(=O)Nc2ccccc2OC)c2c(=O)n(C)c(=O)n(C)c2n1"
unit_abbrev = "%"
measurement = -10.4

[[record]]
compound = "CCOc1ccc(N2C(=O)CC(N(O)c3ccccc3)C2=O)cc1 (stereo unspecified)"
unit_abbrev = "%"
measurement = 20.8

[[record]]
compound = "O=C(COc1ccccc1)N1CCc2ccccc2C1"
unit_abbrev = "%"
measurement = -2.86


Sample CCOC(=O)c1cc2c(n(-c3ccc(C)cc3)c1=O)CCCC2=O — what was its activation?
-11

// query activation value for entry CC1=CC(C)(C)N(C(=O)CSc2nccn2C)c2cc(C)ccc21
-9.35

Look up activation for this compound: CCC(C)n1[nH]c(=O)cc1N (stereo unspecified)
4.55

The measured values listed here are drawn from PubChem BioAssay AID784.
